biological target: LNX1_2, Q8TBB1; assay: holdup assay; design: key: below the threshold = too weak to quantify, mostly under pKd 3.1 to 4; settings: plain residues with an end cap or a label only (N-terminal biotin on a linker: ado-ado)
Sequence (Q8TBB1 371-470): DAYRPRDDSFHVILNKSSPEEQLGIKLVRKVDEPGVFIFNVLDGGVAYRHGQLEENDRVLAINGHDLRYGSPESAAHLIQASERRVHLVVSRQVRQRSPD
PROPERTY_LABEL: pKd

Example binders with recorded pKd:
>>> observed_measurement("AEASVACSLC [PTGIR, P43119]")
3.68
>>> observed_measurement("EPQYQPGENL [SRC, P12931]")
"below the threshold"
>>> observed_measurement("RSSGGDDFWF [KCNV1, Q6PIU1]")
"below the threshold"
>>> observed_measurement("SPDRDRESIV [SCN5A, Q14524]")
"below the threshold"

pKd lookup needed for RQKEVRESKC [SCN8A, Q9UQD0] , thanks. below the threshold

Data request, read-out pKd, for EIPAQSPTCV [FZD10, Q9ULW2] 4.13

Entry QRPYRRGSEI [KCNJ18, B7U540] : reported pKd = ? below the threshold

Given the entry MHIQEKGFHV [EPHA6, Q9UF33] , report its measured pKd. 3.77

Query (binder): LPAVCYDIDI [PTTG2, Q9NZH5] ; field requested: pKd below the threshold
